Assay conditions: in THF, 288.15 K
Property: solubility (mole fraction)

In [3]: df
Out[3]:
              mol  measured_result
0  NC(=O)c1ccncc1           0.0143

====

Assay conditions: in n-pentanol, 288.15 K
Property: solubility (mole fraction)

>>> df
              mol                    property  measured_result
0  NC(=O)c1ccncc1  solubility (mole fraction)           0.0152

====

Assay conditions: in THF, 323.15 K
Property: solubility (mole fraction)

In [3]: df
Out[3]:
              mol                    property  measured_result
0  NC(=O)c1ccncc1  solubility (mole fraction)           0.0344

====

Assay conditions: in DMF, 283.15 K
Property: solubility (mole fraction)

In [3]: df
Out[3]:
              mol  measured_result
0  NC(=O)c1ccncc1            0.135

====

Assay conditions: in methyl acetate, 298.15 K
Property: solubility (mole fraction)

>>> df
              mol                    property  measured_result
0  NC(=O)c1ccncc1  solubility (mole fraction)          0.00826

====

Assay conditions: in n-butanol, 283.15 K
Property: solubility (mole fraction)

>>> print(df.to_string())
              mol                    property  measured_result
0  NC(=O)c1ccncc1  solubility (mole fraction)           0.0189

====

Assay conditions: in methanol, 298.15 K
Property: solubility (mole fraction)

>>> df
              mol  measured_result
0  NC(=O)c1ccncc1           0.0602

====

Assay conditions: in n-propyl acetate, 308.15 K
Property: solubility (mole fraction)

In [3]: df
Out[3]:
              mol  measured_result
0  NC(=O)c1ccncc1           0.0072

====

Assay conditions: in n-propanol, 298.15 K
Property: solubility (mole fraction)

>>> print(df.to_string())
              mol                    property  measured_result
0  NC(=O)c1ccncc1  solubility (mole fraction)           0.0374

====

Assay conditions: in isopropyl acetate, 278.15 K
Property: solubility (mole fraction)

In [3]: df
Out[3]:
              mol  measured_result
0  NC(=O)c1ccncc1          0.00204

====

Assay conditions: in isopropyl acetate, 293.15 K
Property: solubility (mole fraction)

              mol  measured_result
0  NC(=O)c1ccncc1          0.00283

====

Assay conditions: in DMAc, 323.15 K
Property: solubility (mole fraction)

>>> df
              mol                    property  measured_result
0  NC(=O)c1ccncc1  solubility (mole fraction)            0.299

====

Assay conditions: in n-propyl acetate, 293.15 K
Property: solubility (mole fraction)

>>> df
              mol                    property  measured_result
0  NC(=O)c1ccncc1  solubility (mole fraction)          0.00404

====

Assay conditions: in acetone, 303.15 K
Property: solubility (mole fraction)

              mol                    property  measured_result
0  NC(=O)c1ccncc1  solubility (mole fraction)          0.00029
